Target: T1, human TL1A (hTL1A) antigen (human, UniProt O95150 58-251, limits assumed)
T1 construct: also called TNFSF15
T1 sequence (looked up): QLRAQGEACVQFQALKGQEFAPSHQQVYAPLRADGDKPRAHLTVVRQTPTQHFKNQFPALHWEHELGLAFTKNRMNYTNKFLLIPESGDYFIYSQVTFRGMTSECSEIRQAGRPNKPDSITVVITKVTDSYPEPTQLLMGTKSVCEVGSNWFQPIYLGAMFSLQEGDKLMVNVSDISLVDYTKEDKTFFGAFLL
Assay: SPR, affinity ranking, clone as ligand
Value type: kon (M⁻¹ s⁻¹)
Respond with the bare value in M⁻¹ s⁻¹.

Q: Quick one: kon for AS12824 (antibody, V domains shown, Humanized 5C3D11 clone from a phage display library; also called 15) VH: QVQLVQSGAEVKKPGASVKVSCKASGFDICDTYMHWVKQRPGQGLEWIGRIDPASGHTKYDPKFQVRATITTDTSTSTAYLELSSLRSEDTAVYYCARSGGLPDVWGQGTTVTVSS VL: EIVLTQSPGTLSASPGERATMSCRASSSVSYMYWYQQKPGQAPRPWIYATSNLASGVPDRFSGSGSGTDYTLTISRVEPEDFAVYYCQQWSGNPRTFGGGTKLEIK ?
Result: 1.03e+06
